The measurements presented in this section are drawn from ChEMBL document CHEMBL1201862.

Let's look at some compounds and their measured GI50.
Test system: SN12C
Experiment: NCI tumour cell line growth inhibition, 48 h
The source made the active and inactive calls. No stated cut-off is given here; in the data, active = GI50 up to about 1.1 µM and inactive = higher.

The cases that follow already have their GI50 on record.
COc1ccc(N2C(=O)C3c4[nH]c5ccc([N+](=O)[O-])cc5c4C4CCC(C(C)(C)C)CC4C3C2=O)cc1 (configuration not stated) | 15.2 µM (inactive)
CC(C)=NNc1cnnc2ccc([N+](=O)[O-])cc12 | 36.1 µM (inactive)
O=c1oc2ccc(Cl)cc2cc1C1=CSC2=NCCN12 | 17.4 µM (inactive)
CN1CCN(CCCCN2c3ccccc3Sc3cc(N=[N+]=[N-])ccc32)CC1 | 2.31 µM (inactive)
NNC(=O)CC(=O)Nc1cccc(Cl)c1 | > 100 µM (inactive)
C[Si](C)(C)[C@@]1([Se]c2ccccc2)CC[C@@H]1C(=O)c1ccccc1 | 61.4 µM (inactive)
C/C=C/CC(S(=O)(=O)c1ccccc1)S(=O)(=O)c1ccccc1 | > 100 µM (inactive)
CCOc1ccc(NCC2CC/C(=C\c3ccc(O)cc3)C2=O)cc1 (configuration not stated) | 18.5 µM (inactive)
COc1cccc(/C=C2\CCC(C)(CN(C)C)C2=O)c1 (configuration not stated) | > 100 µM (inactive)
COC(CN(C)C(=S)Nc1cccc2ccccc12)OC | > 10 µM (inactive)

Per the record, NC1=NC(c2ccc(Cl)cc2)N(c2ccc(S(N)(=O)=O)cc2)C(N)=N1 (configuration not stated) has GI50 of > 100 µM (inactive)

Per the record, COc1ccc(C23c4ccc(OC)cc4CC2(c2ccc([N+](=O)[O-])cc2)Cc2cc(OC)ccc23)cc1 (configuration not stated) has GI50 of > 50.6 µM (inactive)

Per the record, CSc1nc(Cl)c2c(n1)Sc1nc3ccccc3n1C2O (configuration not stated) has GI50 of 4.85 µM (inactive)

Per the record, "CCCN(CCC)C(=O)C(=O)c1c(N)[nH]n(-c2ccccc2)c1=O" has GI50 of > 100 µM (inactive)

Per the record, "O=C(/C=C/c1cccc([N+](=O)[O-])c1)N1CCN(CCOC(c2ccccc2)c2ccccc2)CC1" has GI50 of 57.5 µM (inactive)

Per the record, "Cc1occc1C(=S)Nc1ccc(Cl)c(C(=O)OC(C(C)C)C(C)C)c1" has GI50 of 14.9 µM (inactive)

Per the record, "O=c1[nH][nH]c(=O)n1Cc1ccccc1Cn1c(=O)[nH][nH]c1=O" has GI50 of > 100 µM (inactive)

Per the record, "CCN(CC)c1ccc(/C=C(\C#N)c2nc(N)nc(N3N=C(C)CC3(C)C)n2)cc1" has GI50 of 27.3 µM (inactive)

Per the record, "Cc1ccc(S(=O)(=O)NCCCN(CCCNS(=O)(=O)c2ccc(C)cc2)S(=O)(=O)c2ccc(C)cc2)cc1" has GI50 of > 100 µM (inactive)

Per the record, COc1ccc(CC2C3=C(CCCC3)CCN2C)cc1 (configuration not stated) has GI50 of > 100 µM (inactive)

Per the record, "CN(C)c1ccccc1CN1CCCN(Cc2ccccc2N(C)C)C1c1ccncc1" has GI50 of 20.4 µM (inactive)

Per the record, CC(C)(O)[C@@H]1CC[C@](C)(C2[C@@H](O)C[C@@]3(C)C4C[C@H](OC5OCC(O)C(O)C5O)[C@H]5C(C)(C)[C@@H](OC6OCC(O)C(O)C6OC6OCC(O)C(O)C6O)CC[C@@]56C[C@@]46CC[C@]23C)O1 (some centres not stated) has GI50 of > 100 µM (inactive)
